Molecular target: L-lactate dehydrogenase (Plasmodium falciparum (isolate CDC / Honduras)) (UniProt Q27743)
Sequence (Q27743 whole entry, looked up): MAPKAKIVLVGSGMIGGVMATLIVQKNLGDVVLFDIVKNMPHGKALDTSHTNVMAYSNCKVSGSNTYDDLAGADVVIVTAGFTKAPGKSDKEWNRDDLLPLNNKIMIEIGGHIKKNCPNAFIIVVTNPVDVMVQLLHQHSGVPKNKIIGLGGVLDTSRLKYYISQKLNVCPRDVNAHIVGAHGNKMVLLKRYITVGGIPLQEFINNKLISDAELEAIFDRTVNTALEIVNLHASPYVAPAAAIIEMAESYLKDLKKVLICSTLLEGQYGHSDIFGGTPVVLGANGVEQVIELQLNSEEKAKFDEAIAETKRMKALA
Assay: PfLDH activity inhibition – cell lysate, 3D7 strain, counter-screen for P. falciparum growth inhibition project (AID 2304);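 further: 0% = vehicle and 100% = reference inhibitor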
Conditions: P. falciparum 3D7 crude extract, LDH APAD/NBT absorbance; at 2 µM; hits give high values
assayMetric: inhibition (%)
Provide the reading as a plain figure in %.

{"compound": "CC(C)[C@H](NC(=O)c1c(F)cccc1F)C(=O)Nc1ccc(Cc2nc3ccccc3s2)cc1", "inhibition (%)": 0}

Look up and report measured inhibition for this entry: "CN1CCN(c2nc(NCCc3ccc(O)cc3)nc(NCc3ccccc3-c3ccc(C(F)(F)F)cc3)n2)CC1"
6

Look up and report measured inhibition for this entry: "Clc1ccc2c(Cl)c(CNCCCNc3nc4ccccc4[nH]3)[nH]c2c1"
-1

Look up and report measured inhibition for this entry: Cc1ccc(-c2cc(C(=O)Nc3ccc(S(=O)(=O)N4CCCC(C)C4)cc3)[nH]n2)c(O)c1 (centres undefined)
-4
